molecular target: hA3G degradation mediated by HIV-1 Vif (UniProt P69723+Q9HC16); construct: expressed in transfected cells; test: Screening experiment for up-regulation activity to hA3G (YFP-fused hA3G co-expressed with HIV-1 Vif, fluorescence); assay type: cell-based, human; details: YFP fluorescence of cells co-expressing Vif and hA3G-YFP; excitation 485 nm, detection 520 nm; averages of duplicates
Sequence (P69723 whole entry, the tested form may be a part): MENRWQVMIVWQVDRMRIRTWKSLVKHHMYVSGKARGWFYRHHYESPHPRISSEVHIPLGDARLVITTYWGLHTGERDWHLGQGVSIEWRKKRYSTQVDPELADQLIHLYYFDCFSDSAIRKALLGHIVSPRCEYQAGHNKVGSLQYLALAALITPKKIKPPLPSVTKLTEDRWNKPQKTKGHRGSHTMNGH
Sequence (Q9HC16 whole entry, the tested form may be a part): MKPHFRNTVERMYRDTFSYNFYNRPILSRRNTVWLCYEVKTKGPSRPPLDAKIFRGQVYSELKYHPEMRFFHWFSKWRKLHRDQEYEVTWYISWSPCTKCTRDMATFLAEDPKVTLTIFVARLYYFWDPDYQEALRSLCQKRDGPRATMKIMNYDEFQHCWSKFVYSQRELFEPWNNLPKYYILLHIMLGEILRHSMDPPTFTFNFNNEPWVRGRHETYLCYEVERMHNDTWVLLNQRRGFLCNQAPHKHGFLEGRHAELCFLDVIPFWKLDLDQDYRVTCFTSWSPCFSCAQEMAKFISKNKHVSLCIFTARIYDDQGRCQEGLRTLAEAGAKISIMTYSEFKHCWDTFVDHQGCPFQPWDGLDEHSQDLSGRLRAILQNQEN
measure.name: hA3G up-regulation activity (%)

1) COc1ccc(C(=O)Nc2cc(OC)c(OC)c(OC)c2)cc1C#N = 9.8%
2) CCC(=O)Nc1cc(C(=O)Nc2ccc(OC)cc2)ccc1OC = 28.9%
3) CCC(=O)Nc1cc(C(=O)Nc2cccc(OC)c2)ccc1OC = 29.1%
4) CCC(=O)Nc1cc(S(=O)(=O)Oc2cc(OC)c(OC)c(OC)c2)ccc1OC = 9.0%
5) COc1ccc(C(=O)Sc2cc(OC)c(OC)c(OC)c2)cc1NC(C)=O = 24.6%
6) COc1ccc(C(=O)Sc2cc(OC)c(OC)c(OC)c2)cc1NC(=O)C(C)Cl (stereo not shown) = 19.4%
7) CCC(=O)Nc1cc(C(=O)Nc2cc(OC)c(OC)c(OC)c2)ccc1OC = 43.9%
8) COc1ccc(C(=O)Nc2cc(OC)c(OC)c(OC)c2)cc1N = 36.2%
9) CCC(=O)Nc1cc(C(=O)Nc2cc(OC)c(NC)c(OC)c2)ccc1OC = 14.4%
10) CCC(=O)Nc1cc(C(=O)Nc2ccc(S(N)(=O)=O)c(OC)c2)ccc1OC = 23.6%
11) CCC(=O)Nc1cc(C(=O)Nc2ccncn2)ccc1OC = 11.8%
12) COc1ccc(C(=O)Oc2cc(OC)c(OC)c(OC)c2)cc1NS(C)(=O)=O = 26.1%
13) COc1ccc(C(=O)Nc2cc(OC)c(OC)c(OC)c2)cc1NC(=O)C(F)(F)F = 24.4%
14) CCC(=O)Nc1cc(NC(=O)c2cc(OC)c(OC)c(OC)c2)ccc1OC = 19.8%
15) CCNc1cc(C(=O)Nc2ccc(OC)cc2)ccc1OC [Compound 37] = 7.7%
16) CCC(=O)Nc1cc(OC)ccc1C(=O)Nc1cc(OC)c(OC)c(OC)c1 = 21.3%
17) COc1ccc(C(=O)Nc2ccc(OC)c(OC)c2)cc1NS(C)(=O)=O = 10.3%
18) CCC(=O)Nc1cc(C(=O)Nc2ccc(S(N)(=O)=O)c(F)c2)ccc1OC = 13.6%
19) COc1ccc(C(=O)Oc2cc(OC)c(OC)c(OC)c2)cc1N [Compound 4] = 1.6%
20) CCC(=O)Nc1cc(C(=O)Nc2cc(OC)c(OC)c(OC)c2)cc(OC)c1F = −1.1%
21) CNc1cc(C(=O)Nc2cc(OC)cc(OC)c2)ccc1OC = 12.7%
22) CCC(=O)Nc1cc(C(=O)Nc2ccc(OC)c(S(N)(=O)=O)c2)ccc1OC = 6.4%
23) CCNc1cc(C(=O)Nc2ccc(OC)c(OC)c2)ccc1OC = 8.6%
24) COc1ccc(S(=O)(=O)Nc2cc(OC)c(OC)c(OC)c2)cc1O = 28.2%
25) CCC(=O)Nc1cc(C(=O)Nc2ccc(OC(F)(F)F)cc2)ccc1C = 31.2%
26) COc1ccc(C(=O)Oc2cc(OC)c(OC)c(OC)c2)cc1NC(=O)C(C)F (stereo not shown) = 18.6%
27) CCC(=O)Nc1cc(C(=O)Nc2cc(OC)co2)ccc1OC = 16.4%
28) CCC(=O)Nc1cc(C(=O)Nc2cc(OC)ncn2)ccc1OC = 18.2%
29) COc1ccc(C(=O)Sc2cc(OC)c(OC)c(OC)c2)cc1N = 14.4%
30) COc1ccc(C(=O)Oc2cc(OC)c(OC)c(OC)c2)cc1N [Compound 352] = 37.0%
31) COc1cc(NC(=O)c2ccc(OC)c(N(C)C)c2)cc(OC)c1 = 21.8%
32) CNc1cc(C(=O)Nc2ccc(S(N)(=O)=O)c(F)c2)ccc1OC = 5.8%
33) CCC(=O)Nc1cc(NS(=O)(=O)c2cc(OC)c(OC)c(OC)c2)ccc1OC = 16.6%
34) CCC(=O)Nc1cc(C(=O)Nc2cc(OC)c(O)c(OC)c2)ccc1OC = 16.6%
35) COc1ccc(C(=O)Nc2cc(OC)c(OC)c(OC)c2)cc1NS(C)(=O)=O = 22.1%
36) CCC(=O)Nc1cc(C(=O)Nc2ccc(OC)c(F)c2)ccc1OC = 8.8%
37) CCC(=O)Nc1cc(C(=O)Nc2cc(OC)c(OC)c(OC)c2)cc(F)c1OC = 14.9%
